# assay_name: chemical genetic growth profiling, strain panel (AID 1159580);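 further: tested at 20 µM; growth read once vehicle control cultures reached saturation at 30 °C; 1 = growth at the plate median or of vehicle wells; lower values mean less growth of the strain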
# test_conditions: S. cerevisiae deletion strains, growth OD, locus YOR316C, strain cot1, stronger effect = lower value
Out of some 5,500 compounds screened, about 2,000 (36%) were called active. Inconclusive results (about 18%) are left out. This is one part of the list.
We begin with a simple list: items and their reported normalized growth.
measurement_type: normalized growth

>>> numeric_result("O[C@H]1[C@H](O)[C@@H](O)C2OC[C@H]1O2")
0.977
>>> numeric_result("O=c1c(O)cccc2cc(O)c(O)c(O)c12")
1
>>> numeric_result("O=C(O)CC[N+](=O)[O-]")
0.989
>>> numeric_result("C[C@]12[C@H](O)CC3C(CC[C@@H]4C[C@@H](O)CC[C@]34C)[C@@]1(O)CC[C@@H]2C1=CC(=O)OC1 (stereo not given in full)")
0.982
>>> numeric_result("COC(=O)C[C@H]1C(C)(C)[C@@H](OC(C)=O)[C@@H]2CC3=C4CC(=O)O[C@@H](c5ccoc5)[C@]4(C)CCC3[C@@]1(C)C2=O (stereo not given in full)")
1.01
